Data provenance is PubChem BioAssay (NCATS).

target: Luciferin 4-monooxygenase (Photinus pyralis); test: Firefly luciferase counterscreen qHTS: Assay Interference Panel against the NCATS CANVASS Library (AID 1347363); conditions: purified firefly luciferase, luminescence inhibition, 5 min; series mostly up to 57.5 µM
The source made the active and inactive calls. The call rests on the fitted dose curve; in most records, active means well fitted curve in the direction sought with a large enough effect; inconclusive means small, poorly fitted or top-dose-only effect, or another doubt; inactive means no such curve, though single readings can be large or run the other way. Bridge positions count the residues as written; N and C are the ends. Square brackets hold non-standard residues; d marks the D form. Side chains are listed from the residue outwards. Peptide text beside a SMILES is read from it. * marks the point of attachment. Phg(4-OMe) = COc1ccc([C@H](N)C(=O)O)cc1; d(aIle) = CC[C@H](C)[C@@H](N)C(=O)O; d(aThr) = C[C@@H](O)[C@@H](N)C(=O)O; NMeF = CN[C@@H](Cc1ccccc1)C(=O)O; Isobutyryl = CC(C)C(=O)*

[
  {
    "COMPOUND": "COc1cc(O)c(C(=O)[C@@H]2[C@H](CC=C(C)C)C(C)=CC[C@H]2c2ccccc2)c(O)c1",
    "outcome": "inactive"
  },
  {
    "COMPOUND": "CN1CC[C@@]23c4ccccc4N[C@@H]1[C@@]21CCN(C)[C@@H]3Nc2ccccc21",
    "outcome": "inactive"
  },
  {
    "COMPOUND": "CC1=C(C)C(=O)OC(C(C)C2(O)CCC3C4C5OC5C5(O)CC=CC(=O)C5(C)C4CCC32C)C1 (stereo not drawn)",
    "outcome": "inactive"
  },
  {
    "COMPOUND": "COc1ccc([C@@H]2c3cc4c(cc3C(=O)[C@H](C)C2C)OCO4)cc1OC (stereo partly drawn)",
    "outcome": "inactive"
  },
  {
    "COMPOUND": "COC1C(C)OC(OCC23C[C@@H]4[C@H](C)CC[C@H]4C4(C=O)CC2C=C(C(C)C)C34C(=O)O)[C@@H](O)[C@H]1O (stereo partly drawn)",
    "outcome": "inactive"
  },
  {
    "COMPOUND": "CC[C@H](C)[C@H]1NC(=O)[C@@H](NC(=O)C(C)C)[C@@H](C)OC(=O)[C@H](COC(=O)CNC(C)=O)NC(=O)[C@@H]([C@@H](C)O)NC(=O)[C@H](Cc2ccccc2)N(C)C(=O)[C@H](c2ccc(OC)cc2)NC1=O (Isobutyryl-T[d(aIle)][Phg(4-OMe)][NMeF][d(aThr)]S([Gly-Ac]); ester 1-C)",
    "outcome": "inactive"
  },
  {
    "COMPOUND": "CN1CC[C@]23c4ccccc4N[C@H]1[C@]21CCN(C)[C@H]3Nc2ccccc21",
    "outcome": "inactive"
  },
  {
    "COMPOUND": "C[C@@]12CCC[C@@](C)(C(=O)OP(=O)(O)OC[C@H]3O[C@@H](n4cnc5c(N)ncnc54)[C@H](O)[C@@H]3O)[C@H]1C[C@@H](O)[C@@]13C[C@@H](CC[C@@H]21)[C@](C)(O)C3",
    "outcome": "inactive"
  }
]
